- TESTED SYSTEM: T1, M7-1
- T1 construct: also called PD1 mutant M7-1
- METHOD: scFv-phage ELISA
RECORDED ENDPOINT: OD490

BINDER	OD490
PD1-44B5 (antibody, V domains shown, scFv-phage in the screening ELISA; later whole IgG) VH: QVQLVESGGGVVQPGRSLRLSCAASGFTFSSYAMHWVRQAPGKGLEWVAVISYDGSNKYYADSVKGRFTISRDNSKNTLYLQMNSLRAEDTAVYYCARLMHTFSVQYFLDVWGQGTTVTVSS VL: QFVLTQSPSASGTPGQNIVISCSASTFNIGTTTVNWYQRLPGTAPKLLIYNYDQRPSGVPDRFSGSKSGTSASLAISGLQSEDEADYYCAAWDDSLNAWLFGGGTKLTVL	3.7
PD1-51D9 (antibody, V domains shown, scFv-phage in the screening ELISA; whole IgG in the other assays) VH: QVQLVESGAEVKKPGASVKLSCKASGYTFSSYWMHWVRQAPGQRLEWMGEINPGNGHTNYNEKFKSRVTITVDKSASTAYMELSSLRSEDTAVYYCAREGDGSYWGYFDSWGQGTPITVSS VL: DIVMTQTPLSLPVTPGEPASISCRSSQSLLHSNGNNYLDWYLQKPGQSPQLLIYLGSYRASGVPDRFSGSGSGTDFTLKISRVEAEDVGLYYCMQGLQIPSTFGPGTKVDIK	0.1

Moving on to another binder below.
Give its OD490 value. Item: PD1-49B9 (antibody, V domains shown, scFv-phage in the screening ELISA; later whole IgG) VH: QMQLVESGGGLVQPGRSLRLSCAASGFTFEDYAMHWVRQPPGKGLEWVSSISWNSHNIAYADSVKGRFTISRDNSKNSLYLQMNSLRAEDTAVYYCSTSGLGVHAWGQGTMVTVSS VL: QSALTQPPSASGSPGQSVTISCTGTSSDVGGYNYVSWYQQHPGKAPKLMIYEVSKRPSGVPDRFSGSKSGNTASLTVSGLQPEDEADYYCSSFARNSNYVFGTGTKVTVL
3.9
